Molecular target: Broad substrate specificity ATP-binding cassette transporter ABCG2 (Homo sapiens)
Sequence (Q9UNQ0 whole entry): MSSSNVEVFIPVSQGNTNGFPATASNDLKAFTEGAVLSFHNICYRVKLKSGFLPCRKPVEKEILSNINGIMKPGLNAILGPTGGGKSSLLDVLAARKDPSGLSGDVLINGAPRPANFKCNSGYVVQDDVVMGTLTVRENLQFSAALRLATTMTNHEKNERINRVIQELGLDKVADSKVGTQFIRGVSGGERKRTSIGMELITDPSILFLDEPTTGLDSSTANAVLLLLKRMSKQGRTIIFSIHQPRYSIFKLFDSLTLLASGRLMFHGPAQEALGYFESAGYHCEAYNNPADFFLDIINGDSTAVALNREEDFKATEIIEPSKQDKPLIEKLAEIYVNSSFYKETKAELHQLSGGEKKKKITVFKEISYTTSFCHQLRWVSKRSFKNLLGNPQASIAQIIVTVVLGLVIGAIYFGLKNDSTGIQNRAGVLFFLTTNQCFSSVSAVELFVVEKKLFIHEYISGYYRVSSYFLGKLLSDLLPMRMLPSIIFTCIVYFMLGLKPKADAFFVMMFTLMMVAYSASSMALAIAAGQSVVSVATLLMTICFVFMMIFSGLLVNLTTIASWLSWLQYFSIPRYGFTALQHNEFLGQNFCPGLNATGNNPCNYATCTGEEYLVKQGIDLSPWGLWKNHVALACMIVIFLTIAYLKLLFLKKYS
Assay: Reversal of BCRP-mediated drug resistant in human MCF7-MX100 cells assessed as potentiation of topotecan-induced cytotoxicity at 1 uM after 5 days by MTS assay
Type: cell-based
Settings: mcf7-mx100, 120 h
PROPERTY MEASURED: fold change (FC)
# print the numeric value only

Consider the worked cases shown below.
COc1cc(OC)c2c(=O)c(OCCn3cnc4c(=O)n(C)c(=O)n(C)c43)c(-c3ccc(OC)c(OC)c3)oc2c1
1.4
COc1cc(OC)c2c(=O)c(OCCOC(=O)c3ccc(OC)c(OC)c3)c(-c3ccc(OC)c(OC)c3)oc2c1
6.7
COc1cc(O)c2c(=O)c(OC)c(-c3ccc(OC)c(OC)c3)oc2c1 [RETUSIN]
19.3

# input Look at this molecule and give its reported fold change (FC). `COc1cc(OC)c2c(=O)c(OCCn3cnc4c(N)ncnc43)c(-c3ccc(OC)c(OC)c3)oc2c1`
# output 1.2

# input Now the same for `COc1cc(OC)c2c(=O)c(OCc3cc(OC)c(OC)c(OC)c3)c(-c3ccc(OC)c(OC)c3)oc2c1`
# output 4.7

# input Now the same for `COc1cc(OC)c2c(=O)c(OCCOC(=O)c3cc(OC)c(OC)c(OC)c3)c(-c3ccc(OC)c(OC)c3)oc2c1`
# output 2

# input Now the same for `COc1ccc(C(=O)OCCOc2c(-c3ccc(OC)c(OC)c3)oc3cc(OC)cc(OC)c3c2=O)cc1`
# output 7.3

# input Now the same for `COc1cc(OC)c2c(=O)c(OCCOC(=O)/C=C/c3cc(OC)c(OC)c(OC)c3)c(-c3ccc(OC)c(OC)c3)oc2c1`
# output 9.1

# input Now the same for `COc1cc(OC)c2c(=O)c(OCC(=O)c3ccc(OC)c(OC)c3)c(-c3ccc(OC)c(OC)c3)oc2c1`
# output 1.4

# input Now the same for `COc1cc(OC)c2c(=O)c(O)c(-c3ccc(OC)c(OC)c3)oc2c1`
# output 6

# input Now the same for `COc1cc(OC)c2c(=O)c(O[C@@H]3O[C@H](CO[C@@H]4O[C@@H](C)[C@H](OC)[C@@H](OC)[C@H]4OC)[C@@H](OC)[C@H](OC)[C@H]3OC)c(-c3ccc(OC)c(OC)c3)oc2c1`
# output 5.3

# input Now the same for C[C@@H]1O[C@@H](OC[C@H]2O[C@@H](Oc3c(-c4ccc(O)c(O)c4)oc4cc(O)cc(O)c4c3=O)[C@H](O)[C@@H](O)[C@@H]2O)[C@H](O)[C@H](O)[C@H]1O [RUTIN]
# output 4.3

# input Now the same for `COc1cc(OC)c2c(=O)c(OC(=O)c3cc(OC)c(OC)c(OC)c3)c(-c3ccc(OC)c(OC)c3)oc2c1`
# output 9.6

# input Now the same for `COc1cc(OC)c2c(=O)c(OC)c(-c3ccc(OC)c(OC)c3)oc2c1`
# output 7.9

# input Now the same for `COc1cc(OC)c2c(=O)c(OCCO)c(-c3ccc(OC)c(OC)c3)oc2c1`
# output 1.5

# input Now the same for `COc1cc(OC)c2c(=O)c(OCCOc3cc4c(Nc5ccc(F)c(Cl)c5)ncnc4cc3OC)c(-c3ccc(OC)c(OC)c3)oc2c1`
# output 1.2

Where do these numbers come from? They come from ChEMBL document CHEMBL2040714.
